Ref: patent US5981497A

protocol-summary: Cytotoxicity on primocultures at 24 hours (neutral red), keratinocytes
Assay type: cell-based
experimental-context: 10^-4M, read-out: Cellular Viability Rate
experimental-endpoint: viability at 24 h, 100 µM

• CC1CCCCCC/C=C\CCCCCCCC(=O)O[C@H]2[C@H](O)[C@@H](O)[C@H](O[C@H]3[C@H](O1)O[C@H](CO)[C@@H](O)[C@@H]3O)O[C@@H]2CO (some centres unmarked) [Sophorolipid in Lactone Form] = 95.9%
• CC(CCCCCC/C=C\CCCCCCCC(=O)O)O[C@@H]1O[C@H](CO)[C@@H](O)[C@H](O)[C@H]1O[C@@H]1O[C@H](CO)[C@@H](O)[C@H](O)[C@H]1O (some centres unmarked) [Sophorolipid in Acid Form] = 99.3%
